All values here come from patent US20200172473A1.

The following compounds are shown together with reported inhibition at 50 µM values.
- target.entity: recombinant human sEH (Homo sapiens)
- run.description: fluorescence-based sEH activity assay with PHOME substrate
- Assay type: biochemical
- condition.parameters: 50 μM; read-out: sEH % inhibition at indicated conc.

- compound: "O=C(O)c1ccc(CNC(=O)c2ccc3ccccc3c2)cc1"
  inhibition at 50 µM (%): 45
- compound: "CC(NC(=O)c1ccc(C(C)(C)C)cc1)c1ccc(C(=O)O)cc1 (stereo not shown)"
  inhibition at 50 µM (%): 37
- compound: "Cc1cc(CNC(=O)c2ccc(C(C)(C)C)cc2)ccc1C(=O)O"
  inhibition at 50 µM (%): 53
- compound: "CC(C)(C)c1ccc(C(=O)NCc2ccc(C(=O)O)c(Cl)c2)cc1"
  inhibition at 50 µM (%): 50
- compound: "COc1ccc(C(=O)NCc2ccc(C(=O)O)cc2)cc1OC"
  inhibition at 50 µM (%): 26
- compound: "Cc1ccc(C(=O)NCc2ccc(C(=O)O)cc2)cc1C"
  inhibition at 50 µM (%): 52
- compound: "CC(C)(C)c1ccc(C(=O)NCc2cccc(C(=O)O)c2)cc1"
  inhibition at 50 µM (%): 26

* * *

- target.entity: FXR-LBD (Homo sapiens, UniProt Q96RI1)
- Sequence (Q96RI1 262-486 limits assumed): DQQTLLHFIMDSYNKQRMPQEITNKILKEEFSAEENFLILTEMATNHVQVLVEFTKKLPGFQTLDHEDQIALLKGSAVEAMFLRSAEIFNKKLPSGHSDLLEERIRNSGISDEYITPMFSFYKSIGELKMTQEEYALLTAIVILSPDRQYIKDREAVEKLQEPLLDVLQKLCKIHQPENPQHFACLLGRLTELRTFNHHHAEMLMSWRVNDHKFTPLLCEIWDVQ

- compound: "CC(C)(C)c1ccc(C(=O)NCc2ccc(NS(C)(=O)=O)cc2Cl)cc1 [compound 57]"
  target.entity: "FXR-LBD (Homo sapiens, UniProt Q96RI1)"
  Kd [nM]: 130

* * *

- target.entity: recombinant human sEH (Homo sapiens)
- Sequence (P34913 1-555): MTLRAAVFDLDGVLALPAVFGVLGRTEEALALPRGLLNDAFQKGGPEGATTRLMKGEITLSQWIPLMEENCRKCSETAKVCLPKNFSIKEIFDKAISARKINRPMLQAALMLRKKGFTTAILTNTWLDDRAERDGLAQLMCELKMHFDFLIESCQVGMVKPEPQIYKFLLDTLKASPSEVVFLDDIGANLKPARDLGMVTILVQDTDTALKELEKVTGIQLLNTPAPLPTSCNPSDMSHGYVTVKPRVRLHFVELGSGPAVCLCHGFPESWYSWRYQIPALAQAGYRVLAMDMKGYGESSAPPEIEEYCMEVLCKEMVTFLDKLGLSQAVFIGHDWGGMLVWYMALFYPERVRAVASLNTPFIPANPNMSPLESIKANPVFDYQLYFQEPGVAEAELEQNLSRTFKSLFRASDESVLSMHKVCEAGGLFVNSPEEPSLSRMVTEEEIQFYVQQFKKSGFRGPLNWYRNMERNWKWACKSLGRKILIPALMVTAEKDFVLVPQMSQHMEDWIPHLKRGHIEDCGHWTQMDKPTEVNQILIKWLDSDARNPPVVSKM
- run.description: fluorescence-based sEH activity assay with PHOME substrate
- Assay type: biochemical
- condition.parameters: recombinant human sEH, PHOME; read-out: sEH inhibition IC50
measurement.kind: IC50 (nM)

- compound: "CS(=O)(=O)Nc1ccc(CNC(=O)c2ccc(C3(C(F)(F)F)CC3)cc2)c(Cl)c1"
  measured.number: 4
- compound: "CC(C)(C)c1ccc(C(=O)NCc2ccc(NS(C)(=O)=O)cc2Cl)c(O)c1"
  measured.number: 380
- compound: "CCS(=O)(=O)Nc1ccc(CNC(=O)c2ccc(C(C)(C)C)cc2)c(Cl)c1"
  measured.number: 6
- compound: "CN(C)c1ccc(C(=O)NCc2ccc(NS(C)(=O)=O)cc2Cl)cc1"
  measured.number: 45
- compound: "CC(C)(C)c1ccc(C(=O)NCc2ccc(N)cc2Cl)cc1 [69a]"
  measured.number: 40
- compound: "CC(C)S(=O)(=O)Nc1ccc(CNC(=O)c2ccc(C(C)(C)C)cc2)c(Cl)c1"
  measured.number: 11
- compound: "CC(C)(C)c1ccc(C(=O)NCc2ccc(NS(C)(=O)=O)cc2Cl)cc1"
  measured.number: 4.1
- compound: "CC(C)(C)c1ccc(C(=O)NCc2ccc(NS(C)(=O)=O)cc2C(F)(F)F)cc1"
  measured.number: 2
- compound: "CC(C)(C)c1ccc(C(=O)NCc2ccc(NS(C)(=O)=O)cc2Cl)cc1O"
  measured.number: 16

* * *

The following compounds are shown together with reported Emax values.
- target.entity: human FXR (Homo sapiens)
- Construct: characterized in a full-length (fl) FXR reporter gene assay in HeLa cells; expressed in transfected cells; host or cells: HeLa
- run.description: full-length FXR reporter gene (transactivation) assay in HeLa cells
- Format: cell-based
- condition.parameters: HeLa; read-out: FXR activation max. rel. activation (converted)

- chem.smiles: "CCOc1ccc(CNC(=O)c2ccc(C(C)(C)C)cc2)cc1"
  Emax / %: 31
- chem.smiles: "CC(C)Oc1ccc(CNC(=O)c2ccc(C(C)(C)C)cc2)cc1"
  Emax / %: 26
- chem.smiles: "CC(=O)Nc1ccc(CNC(=O)c2ccc(C(C)(C)C)cc2)cc1"
  Emax / %: 31
- chem.smiles: "CC(C)(C)c1ccc(C(=O)NCc2ccc(C(=O)O)c(Cl)c2)cc1"
  Emax / %: 21
- chem.smiles: "CC(C)(C)c1ccc(C(=O)NCc2ccc(CC(=O)O)cc2)cc1"
  Emax / %: 19

* * *

- target.entity: human FXR (Homo sapiens)
- Construct: characterized in a full-length (fl) FXR reporter gene assay in HeLa cells; expressed in transfected cells; host or cells: HeLa
- run.description: full-length FXR reporter gene (transactivation) assay in HeLa cells
- Format: cell-based
- condition.parameters: HeLa; read-out: FXR activation max. rel. activation (converted)
- Description: This assay is based on a reporter construct containing a firefly luciferase under the control of the FXR response element from bile salt export protein (BSEP). […] The sEH inhibitory potency of the test compounds was quantified in a fluorescence-based assay using recombinant enzyme and the fluorogenic sEH substrate PHOME^37 that is hydrolyzed to a fluorescent 6-methoxynaphtaldehyde by sEH. […]
Assign Met to entries whose Emax meets or exceeds 20%; assign Not met to the rest.

- chem.smiles: "CC(C)S(=O)(=O)Nc1ccc(CNC(=O)c2ccc(C(C)(C)C)cc2)c(Cl)c1"
  category.label: "Not met"
- chem.smiles: "Cc1ccc(C(=O)NCc2ccc(C(=O)O)cc2)cc1C"
  category.label: "Not met"
- chem.smiles: "CC(=O)c1ccc(CNC(=O)c2ccc(C(C)(C)C)cc2)cc1"
  category.label: "Met"
- chem.smiles: "CC(C)(C)c1ccc(C(=O)NCc2ccc(CCC(=O)O)cc2)cc1"
  category.label: "Not met"

* * *

- target.entity: PPARγ (Homo sapiens, UniProt P37231)
- Construct: pFA-CMV-hPPARγ-LBD
- Sequence (P37231 238-503 limits assumed): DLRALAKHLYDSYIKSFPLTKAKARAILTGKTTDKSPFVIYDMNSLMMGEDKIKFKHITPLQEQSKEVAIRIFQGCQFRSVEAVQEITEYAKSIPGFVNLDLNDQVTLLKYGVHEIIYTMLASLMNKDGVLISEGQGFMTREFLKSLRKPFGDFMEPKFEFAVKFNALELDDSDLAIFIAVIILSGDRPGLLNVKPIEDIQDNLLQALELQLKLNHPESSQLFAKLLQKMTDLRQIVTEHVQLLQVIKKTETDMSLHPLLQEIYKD
- run.description: Gal4-hybrid reporter gene assay PPARγ in HEK293T cells
- condition.parameters: weak partial agonism

- compound: "CC(C)(C)c1ccc(C(=O)NCc2ccc(NS(C)(=O)=O)cc2Cl)cc1 [compound 57]"
  value.unit: "µM"
  EC50: 14.7

* * *

The following molecules are shown together with reported Emax values.
- target.entity: human FXR (Homo sapiens, UniProt Q96RI1)
- Construct: characterized in a full-length (fl) FXR reporter gene assay in HeLa cells; expressed in transfected cells; host or cells: HeLa
- run.description: full-length FXR reporter gene (transactivation) assay in HeLa cells
- Assay type: cell-based
- condition.parameters: HeLa; read-out: FXR activation max. rel. activation (converted)

- molecule: "CC(C)(C)c1ccc(C(=O)NCc2ccc(NC(=O)C(F)(F)F)cc2Cl)cc1"
  target.entity: "human FXR (Homo sapiens, UniProt Q96RI1)"
  Emax: "21%"
- molecule: "CC(C)(C)c1ccc(C(=O)NCc2ccc(SC(F)(F)F)cc2)cc1"
  target.entity: "human FXR (Homo sapiens, UniProt Q96RI1)"
  Emax: "19%"
- molecule: "CC(C)(C)c1ccc(C(=O)NCc2ccc(NS(C)(=O)=O)cc2Cl)cc1O"
  target.entity: "human FXR (Homo sapiens, UniProt Q96RI1)"
  Emax: "24%"
- molecule: "CC(C)(C)c1ccc(NC(=O)Nc2ccc(C(=O)O)cc2)cc1"
  target.entity: "human FXR (Homo sapiens, UniProt Q96RI1)"
  Emax: "14%"
- molecule: "CNC(=O)c1ccc(CNC(=O)c2ccc(C(C)(C)C)cc2)cc1"
  target.entity: "human FXR (Homo sapiens, UniProt Q96RI1)"
  Emax: "29%"
- molecule: "CC(C)(C)c1ccc(C(=O)NCc2ccc(C(=O)O)cc2F)cc1"
  target.entity: "human FXR (Homo sapiens, UniProt Q96RI1)"
  Emax: "26%"
- molecule: "CC(C)(C)c1ccc(C(=O)NCc2ccc(OC(F)(F)F)cc2)cc1"
  target.entity: "human FXR (Homo sapiens, UniProt Q96RI1)"
  Emax: "26%"
- molecule: "CC(C)(C)c1ccc(C(=O)NCc2ccc(-c3nnn[nH]3)cc2)cc1"
  target.entity: "human FXR (Homo sapiens, UniProt Q96RI1)"
  Emax: "23%"
- molecule: "CC(C)(C)c1ccc(C(=O)NCc2ccc(C(=O)O)cc2Cl)cc1"
  target.entity: "human FXR (Homo sapiens, UniProt Q96RI1)"
  Emax: "25%"
- molecule: "CC(C)(C)c1ccc(C(=O)NCc2ccc(C=O)cc2)cc1"
  target.entity: "human FXR (Homo sapiens, UniProt Q96RI1)"
  Emax: "22%"
- molecule: "CS(=O)(=O)Nc1ccc(CNC(=O)c2ccc(C3(C(F)(F)F)CC3)cc2)c(Cl)c1"
  target.entity: "human FXR (Homo sapiens, UniProt Q96RI1)"
  Emax: "31%"
- molecule: "C[S+]([O-])c1ccc(CNC(=O)c2ccc(C(C)(C)C)cc2)cc1 (stereo not drawn)"
  target.entity: "human FXR (Homo sapiens, UniProt Q96RI1)"
  Emax: "24%"
